# system.name: CAII (Homo sapiens, UniProt P00918)
# assay.explanation: fluorescent thermal shift assay (FTSA), CAII
# Format: binding
# stated.conditions: converted from Kd_obs, 37 °C, pH 7.0, FTSA
We begin with a simple list: items and their reported ΔGobs CAII.
Answer format: numeric, kcal/mol implied, no suffix.

QUERY: Return ΔGobs CAII measured with CAII (Homo sapiens, UniProt P00918) given this compound: `COC(=O)c1cc(S(N)(=O)=O)c(Cl)cc1SCc1ccccc1`
RESULT: -10.6

QUERY: Return ΔGobs CAII measured with CAII (Homo sapiens, UniProt P00918) given this compound: `COC(=O)c1cc(S(N)(=O)=O)c(SC2CCCCC2)cc1Br`
RESULT: -9.51

QUERY: Return ΔGobs CAII measured with CAII (Homo sapiens, UniProt P00918) given this compound: COC(=O)c1cc(S(N)(=O)=O)c(Br)cc1S(=O)(=O)c1ccccc1 [Compound 10a]
RESULT: -12.3

QUERY: Return ΔGobs CAII measured with CAII (Homo sapiens, UniProt P00918) given this compound: `COC(=O)c1cc(S(N)(=O)=O)c(SC2CCCCC2)cc1Cl`
RESULT: -9.37

QUERY: Return ΔGobs CAII measured with CAII (Homo sapiens, UniProt P00918) given this compound: `COC(=O)c1cc(S(N)(=O)=O)c(Cl)cc1S(=O)(=O)CCc1ccccc1`
RESULT: -12.5

The reported measurements were obtained from paper PMC8745178.
